method description: calcium signal blockers in parental CHO-K1 cells – cell-based, Fluo-8 calcium fluorescence, full deck, 1536-well, counter-screen for M1 antagonist project, primary screen (AID 602250);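 also: 0% = DMSO plus EC80 ATP and 100% = DMSO alone without ATP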
condition: ATP-induced calcium, Fluo-8 fluorescence, at 3 µM, stronger effect = higher value
About 2,200 (0.61%) of roughly 360,000 compounds were called active. The entries come from a sample that favours actives as a whole.
Listing of recorded inhibition by entry.
quantity name: inhibition (%)

# compound, quantitative result
measured = [
    ("C=CCNC(=S)NNc1ncnc2sc3c(c12)CC(C)(C)OC3", -3.73),
    ("Cc1cc(C)n(CC(=O)Nc2ccc([N+](=O)[O-])cc2)n1", -4.31),
    ("O=C(NCC(=O)N1CCN(c2ncc(C(F)(F)F)cc2Cl)CC1)c1ccc(Br)o1", -11.5),
    ("O=C(CC1Sc2ccccc2NC1=O)NNc1ccc(Cl)c(Cl)c1 (configuration not stated)", -13.4),
    ("NC(=O)c1ncn([C@@H]2O[C@H](CN=C3NS(=O)(=O)c4ccccc43)[C@@H](O)[C@H]2O)n1", -7.18),
    ("CS(=O)(=O)N1CCc2cc(C(=O)Nc3ccccc3Br)ccc21", 25.4),
    ("Cc1cccc(CSc2nnc(C)c(=O)n2N)c1", -7.07),
    ("CCn1ccnc1CN(C)C(=O)c1cc(COc2ccc(Cl)cc2OC)on1", -6.33),
    ("CCOc1ccc(C2NC(=S)NC3=C2CCc2ccccc23)cc1 (configuration not stated)", 4.36),
    ("CCOc1ccc(C(=O)NCC(=O)N2CCN(c3ccc(C(F)(F)F)cn3)CC2)cc1", 31.8),
    ("O=C(CN1C(=O)NC2(CCCC2)C1=O)NCC1CCCO1 (configuration not stated)", -10.5),
    ("COc1ccc(OCc2cc(C(=O)N3CCCC3)no2)c2ccccc12", -10.3),
    ("CCCCOc1ccc(N(CC(=O)NC(C)C)C(=O)CCC(=O)Nc2ccccn2)cc1", 23.1),
    ("COCCCN(C(=O)Cn1ncc2c(=O)oc3ccc(C)cc3c21)C(C)c1ccncc1 (configuration not stated)", -9.26),
    ("Oc1cc2c(cc1O)CN(C(=S)NCCc1ccc(Cl)cc1)CCC2", 1.38),
    ("Cc1ccccc1CSCCNC(=O)c1ccc(N(C)S(=O)(=O)c2ccccc2)cc1", -7.28),
    ("CCOC(=O)C1(CCOC)CCN(Cc2cc3ccccc3s2)CC1", -9.7),
    ("CCOC(=O)C1(C)CCCN(C(=O)c2cccc(Cl)c2)C1 (configuration not stated)", -16.1),
    ("O=C(Cc1ccc([N+](=O)[O-])cc1)Nc1ccc(C(=O)N2CCOCC2)cc1", -11.3),
    ("c1ccc(CCN2CN=C(Nc3nc4ccccc4o3)NC2)cc1", -10.1),
    ("O=c1cc(CN2CCN(S(=O)(=O)/C=C/c3ccccc3)CC2)c2ccc(O)cc2o1", 6.97),
    ("CC(=O)Nc1ccc(S(=O)(=O)N2CCN(S(=O)(=O)c3cccs3)CC2)cc1", 6.03),
    ("COc1cc(Cl)ccc1OCc1cc(C(=O)N2CC[C@@H]3CCCC[C@H]3C2)no1", 30.9),
    ("Fc1ccccc1CNC(=S)Nc1ccc(Cl)cc1", 7.2),
    ("O=C(NNC(=S)NCc1ccccc1)c1ccc(OC(F)F)cc1", -9.25),
    ("O=C1NC(Cc2ccccc2)c2nc3ccc(Br)cc3c(=O)n2-c2cc3ccccc3cc21 (configuration not stated)", 12.3),
    ("CC(OC(=O)CCC(=O)c1ccccc1)C(=O)Nc1ccc(F)cc1 (configuration not stated)", 1.59),
    ("O=C(Cc1cccs1)Nc1ccc([N+](=O)[O-])cc1", 23.9),
    ("O=c1[nH]c(=O)n(Cc2ccco2)c2c1C(C(F)(F)F)(C(F)(F)F)N=C(c1ccco1)N2", 30.1),
    ("COc1ccc(N2CCN(C(=O)CNC(=O)c3ccc(C(C)(C)C)cc3)CC2)cc1", 9.5),
    ("CSc1ccccc1NC(=O)c1ccc2c(c1)CCN2S(C)(=O)=O", -14.8),
    ("Cc1ccccc1C1=NC(C(F)(F)F)(C(F)(F)F)c2c(n(-c3ccc(F)cc3)c(=O)[nH]c2=O)N1", -9.81),
    ("C[C@H](NC(=O)[C@@H]1CCCN1C(=O)[C@@H]1CCCN1C(=O)c1ccccc1)c1ccccc1", -24.1),
    ("COc1ccc(C(=O)NC(=S)N2CCNC(=O)C2CC(=O)OC(C)C)cc1 (configuration not stated)", -6.8),
    ("CC1CCCCN1S(=O)(=O)CCNC(=O)c1ccccc1 (configuration not stated)", 14.2),
    ("O=C1c2ccccc2C(=O)N1CC1c2ccccc2CCN1S(=O)(=O)c1ccccc1 (configuration not stated)", -4.18),
    ("Cc1nc(CN(C)C(=O)CC2C(=O)NCCN2Cc2ccc(F)cc2)cs1 (configuration not stated)", -6.22),
]
